Below, each entry is listed with its recorded IC50.
# System: MCF7 complex spheroid growth, % test/control
# testSummary: Anticancer human tumor MCF7 cell line growth inhibition [Asc];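 note: spheroids exposed to compounds for 7 days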
# settings: curve of first compound; second compound 0.00316 µM

NC1CCC(NC2CC2c2ccccc2)CC1 (centres undefined) + CNC(C)C(=O)NC1CN(S(=O)(=O)c2cccc(S(=O)(=O)N3CCC4CCC(C(=O)NC(c5ccccc5)c5ccccc5)N4C(=O)C(NC(=O)C(C)NC)C3)c2)CCC2CCC(C(=O)NC(c3ccccc3)c3ccccc3)N2C1=O = < 0.000316 µM
NC(=O)C(=Cn1cnc(-c2cc(C(F)(F)F)cc(C(F)(F)F)c2)n1)c1cncnc1 + CNC(C)C(=O)NC1CN(S(=O)(=O)c2cccc(S(=O)(=O)N3CCC4CCC(C(=O)NC(c5ccccc5)c5ccccc5)N4C(=O)C(NC(=O)C(C)NC)C3)c2)CCC2CCC(C(=O)NC(c3ccccc3)c3ccccc3)N2C1=O = < 0.000949 µM
C#Cc1c(F)ccc2cc(O)cc(-c3ncc4c(N5CC6CCC(C5)N6)nc(OCC56CCCN5CC(F)C6)nc4c3F)c12 (centres undefined) + CNC(C)C(=O)NC1CN(S(=O)(=O)c2cccc(S(=O)(=O)N3CCC4CCC(C(=O)NC(c5ccccc5)c5ccccc5)N4C(=O)C(NC(=O)C(C)NC)C3)c2)CCC2CCC(C(=O)NC(c3ccccc3)c3ccccc3)N2C1=O = < 0.0316 µM

The record that follows has no IC50 shown yet.
Look up IC50: O=C(c1cc(Cc2n[nH]c(=O)c3ccccc23)ccc1F)N1CCN(C(=O)C2CC2)CC1 + CNC(C)C(=O)NC1CN(S(=O)(=O)c2cccc(S(=O)(=O)N3CCC4CCC(C(=O)NC(c5ccccc5)c5ccccc5)N4C(=O)C(NC(=O)C(C)NC)C3)c2)CCC2CCC(C(=O)NC(c3ccccc3)c3ccccc3)N2C1=O
< 0.0316 µM

====

# System: MCF7 complex spheroid growth, % test/control
# testSummary: Anticancer human tumor MCF7 cell line growth inhibition [Asc];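 note: spheroids exposed to compounds for 7 days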;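 for viability, T/C: 100% = DMSO vehicle control wells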
# settings: second compound 0.00316 µM; first compound 0.01 µM; stronger effect = lower value
Below, each entry is listed with its recorded viability, T/C.

In the examples that follow, each entry is paired with its recorded viability, T/C.
CCN1CCN(Cc2ccc(Nc3ncc(F)c(-c4cc(F)c5nc(C)n(C(C)C)c5c4)n3)nc2)CC1 + CNC(C)C(=O)NC1CN(S(=O)(=O)c2cccc(S(=O)(=O)N3CCC4CCC(C(=O)NC(c5ccccc5)c5ccccc5)N4C(=O)C(NC(=O)C(C)NC)C3)c2)CCC2CCC(C(=O)NC(c3ccccc3)c3ccccc3)N2C1=O = 32.9%
O=C(c1ccc(F)c(F)c1Nc1ccc(I)cc1F)N1CC(O)([C@@H]2CCCCN2)C1 + CNC(C)C(=O)NC1CN(S(=O)(=O)c2cccc(S(=O)(=O)N3CCC4CCC(C(=O)NC(c5ccccc5)c5ccccc5)N4C(=O)C(NC(=O)C(C)NC)C3)c2)CCC2CCC(C(=O)NC(c3ccccc3)c3ccccc3)N2C1=O = 41.5%
COc1c(OCCCN2CCOCC2)ccc2c3n(c(=NC(=O)c4cnc(N)nc4)nc12)CCN3 + CNC(C)C(=O)NC1CN(S(=O)(=O)c2cccc(S(=O)(=O)N3CCC4CCC(C(=O)NC(c5ccccc5)c5ccccc5)N4C(=O)C(NC(=O)C(C)NC)C3)c2)CCC2CCC(C(=O)NC(c3ccccc3)c3ccccc3)N2C1=O = 35.3%
NC1CCC(NC2CC2c2ccccc2)CC1 (stereo not given) + CNC(C)C(=O)NC1CN(S(=O)(=O)c2cccc(S(=O)(=O)N3CCC4CCC(C(=O)NC(c5ccccc5)c5ccccc5)N4C(=O)C(NC(=O)C(C)NC)C3)c2)CCC2CCC(C(=O)NC(c3ccccc3)c3ccccc3)N2C1=O = 21.6%

Look up viability, T/C: Cn1ncnc1[C@H]1c2n[nH]c(=O)c3cc(F)cc(c23)N[C@@H]1c1ccc(F)cc1 + CNC(C)C(=O)NC1CN(S(=O)(=O)c2cccc(S(=O)(=O)N3CCC4CCC(C(=O)NC(c5ccccc5)c5ccccc5)N4C(=O)C(NC(=O)C(C)NC)C3)c2)CCC2CCC(C(=O)NC(c3ccccc3)c3ccccc3)N2C1=O
13.2%

====

# Tested on: MCF7 complex spheroid growth, % test/control
# testSummary: Anticancer human tumor MCF7 cell line growth inhibition [Asc];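 note: spheroids exposed to compounds for 7 days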
# settings: curve of first compound; second compound 0.1 µM
Below, each entry is listed with its recorded IC50.

In the examples that follow, each entry is paired with its recorded IC50.
O=C(c1cc(Cc2n[nH]c(=O)c3ccccc23)ccc1F)N1CCN(C(=O)C2CC2)CC1 + CNC(C)C(=O)NC1CN(S(=O)(=O)c2cccc(S(=O)(=O)N3CCC4CCC(C(=O)NC(c5ccccc5)c5ccccc5)N4C(=O)C(NC(=O)C(C)NC)C3)c2)CCC2CCC(C(=O)NC(c3ccccc3)c3ccccc3)N2C1=O = < 0.0316 µM
C=C(F)C(=O)N1CCN(c2nc(OCC3CCCN3C)nc3c2CCN(c2cccc4cccc(Cl)c24)C3)CC1CC#N (stereo unspecified) + CNC(C)C(=O)NC1CN(S(=O)(=O)c2cccc(S(=O)(=O)N3CCC4CCC(C(=O)NC(c5ccccc5)c5ccccc5)N4C(=O)C(NC(=O)C(C)NC)C3)c2)CCC2CCC(C(=O)NC(c3ccccc3)c3ccccc3)N2C1=O = < 0.0316 µM
C=CC(=O)N1CCN(c2nc(=O)n(-c3c(C)ccnc3C(C)C)c3nc(-c4c(O)cccc4F)c(F)cc23)C(C)C1 (stereo unspecified) + Cc1c(S(C)(=O)=O)c(-c2cc(F)cc(N3CCN(c4ccc(NS(=O)(=O)c5ccc(NC(CCN6CCC(C(=O)OCCCP(=O)(O)O)CC6)CSc6ccccc6)c(S(=O)(=O)C(F)(F)F)c5)cc4)CC3)c2)c(-c2ccc(Cl)cc2)n1C(C)C = > 10 µM

Entry CCN1CCN(Cc2ccc(Nc3ncc(F)c(-c4cc(F)c5nc(C)n(C(C)C)c5c4)n3)nc2)CC1 + CNC(C)C(=O)NC1CN(S(=O)(=O)c2cccc(S(=O)(=O)N3CCC4CCC(C(=O)NC(c5ccccc5)c5ccccc5)N4C(=O)C(NC(=O)C(C)NC)C3)c2)CCC2CCC(C(=O)NC(c3ccccc3)c3ccccc3)N2C1=O , system MCF7 complex spheroid growth, % test/control: what IC50 was measured?
< 0.00316 µM

Query COc1c(OCCCN2CCOCC2)ccc2c3n(c(=NC(=O)c4cnc(N)nc4)nc12)CCN3 + Cc1c(S(C)(=O)=O)c(-c2cc(F)cc(N3CCN(c4ccc(NS(=O)(=O)c5ccc(NC(CCN6CCC(C(=O)OCCCP(=O)(O)O)CC6)CSc6ccccc6)c(S(=O)(=O)C(F)(F)F)c5)cc4)CC3)c2)c(-c2ccc(Cl)cc2)n1C(C)C next
0.038 µM

Query C#Cc1c(F)ccc2cc(O)cc(-c3ncc4c(N5CC6CCC(C5)N6)nc(OCC56CCCN5CC(F)C6)nc4c3F)c12 (stereo unspecified) + Cc1c(S(C)(=O)=O)c(-c2cc(F)cc(N3CCN(c4ccc(NS(=O)(=O)c5ccc(NC(CCN6CCC(C(=O)OCCCP(=O)(O)O)CC6)CSc6ccccc6)c(S(=O)(=O)C(F)(F)F)c5)cc4)CC3)c2)c(-c2ccc(Cl)cc2)n1C(C)C next
> 10 µM

====

# System: MCF7 complex spheroid growth, % test/control
# testSummary: Anticancer human tumor MCF7 cell line growth inhibition [Asc];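 note: spheroids exposed to compounds for 7 days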
# settings: curve of compound
# Description: Multicellular complex tumor spheroid response to apoptosis pathway targeting inhibitors Alrizomadlin, Pelcitoclax, and Dasminapant in combination with a variety of drugs and investigational agents in selected tumor cell lines […] Compounds. […] If the clinical Cmax for an agent had not been determined, the highest concentration tested was 10 microM. […]
pIC50: −log10 of the molar value.
experimentalReadout: pIC50

CCN1CCN(Cc2ccc(Nc3ncc(F)c(-c4cc(F)c5nc(C)n(C(C)C)c5c4)n3)nc2)CC1 = < 6.00

Look up pIC50: C#Cc1c(F)ccc2cc(O)cc(-c3ncc4c(N5CC6CCC(C5)N6)nc(OCC56CCCN5CC(F)C6)nc4c3F)c12 (stereo unspecified)
< 5.00

Query NC1CCC(NC2CC2c2ccccc2)CC1 (stereo unspecified) next
< 7.00

Query O=C(c1ccc(F)c(F)c1Nc1ccc(I)cc1F)N1CC(O)([C@@H]2CCCCN2)C1 next
< 6.00

Query C=CC(=O)N1CCN(c2nc(=O)n(-c3c(C)ccnc3C(C)C)c3nc(-c4c(O)cccc4F)c(F)cc23)C(C)C1 (stereo unspecified) next
< 5.00

Query Cn1ncnc1[C@H]1c2n[nH]c(=O)c3cc(F)cc(c23)N[C@@H]1c1ccc(F)cc1 next
< 7.00

====

# System: MCF7 complex spheroid growth, % test/control
# testSummary: Anticancer human tumor MCF7 cell line growth inhibition [Asc];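 note: spheroids exposed to compounds for 7 days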;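 for viability, T/C: 100% = DMSO vehicle control wells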
# settings: second compound 0.00316 µM; first compound 0.1 µM; stronger effect = lower value
Below, each entry is listed with its recorded viability, T/C.
State the answer as a number, implicitly in %.

In the examples that follow, each entry is paired with its recorded viability, T/C.
C#Cc1c(F)ccc2cc(O)cc(-c3ncc4c(N5CC6CCC(C5)N6)nc(OCC56CCCN5CC(F)C6)nc4c3F)c12 (centres undefined) + CNC(C)C(=O)NC1CN(S(=O)(=O)c2cccc(S(=O)(=O)N3CCC4CCC(C(=O)NC(c5ccccc5)c5ccccc5)N4C(=O)C(NC(=O)C(C)NC)C3)c2)CCC2CCC(C(=O)NC(c3ccccc3)c3ccccc3)N2C1=O = 44.3
Cn1ncnc1[C@H]1c2n[nH]c(=O)c3cc(F)cc(c23)N[C@@H]1c1ccc(F)cc1 + CNC(C)C(=O)NC1CN(S(=O)(=O)c2cccc(S(=O)(=O)N3CCC4CCC(C(=O)NC(c5ccccc5)c5ccccc5)N4C(=O)C(NC(=O)C(C)NC)C3)c2)CCC2CCC(C(=O)NC(c3ccccc3)c3ccccc3)N2C1=O = 10.1
O=C(c1ccc(F)c(F)c1Nc1ccc(I)cc1F)N1CC(O)([C@@H]2CCCCN2)C1 + CNC(C)C(=O)NC1CN(S(=O)(=O)c2cccc(S(=O)(=O)N3CCC4CCC(C(=O)NC(c5ccccc5)c5ccccc5)N4C(=O)C(NC(=O)C(C)NC)C3)c2)CCC2CCC(C(=O)NC(c3ccccc3)c3ccccc3)N2C1=O = 26
C=C(F)C(=O)N1CCN(c2nc(OCC3CCCN3C)nc3c2CCN(c2cccc4cccc(Cl)c24)C3)CC1CC#N (centres undefined) + CNC(C)C(=O)NC1CN(S(=O)(=O)c2cccc(S(=O)(=O)N3CCC4CCC(C(=O)NC(c5ccccc5)c5ccccc5)N4C(=O)C(NC(=O)C(C)NC)C3)c2)CCC2CCC(C(=O)NC(c3ccccc3)c3ccccc3)N2C1=O = 38.8
CCN1CCN(Cc2ccc(Nc3ncc(F)c(-c4cc(F)c5nc(C)n(C(C)C)c5c4)n3)nc2)CC1 + CNC(C)C(=O)NC1CN(S(=O)(=O)c2cccc(S(=O)(=O)N3CCC4CCC(C(=O)NC(c5ccccc5)c5ccccc5)N4C(=O)C(NC(=O)C(C)NC)C3)c2)CCC2CCC(C(=O)NC(c3ccccc3)c3ccccc3)N2C1=O = 20.2
C=CC(=O)N1CCN(c2nc(=O)n(-c3c(C)ccnc3C(C)C)c3nc(-c4c(O)cccc4F)c(F)cc23)C(C)C1 (centres undefined) + CNC(C)C(=O)NC1CN(S(=O)(=O)c2cccc(S(=O)(=O)N3CCC4CCC(C(=O)NC(c5ccccc5)c5ccccc5)N4C(=O)C(NC(=O)C(C)NC)C3)c2)CCC2CCC(C(=O)NC(c3ccccc3)c3ccccc3)N2C1=O = 29
COc1c(OCCCN2CCOCC2)ccc2c3n(c(=NC(=O)c4cnc(N)nc4)nc12)CCN3 + CNC(C)C(=O)NC1CN(S(=O)(=O)c2cccc(S(=O)(=O)N3CCC4CCC(C(=O)NC(c5ccccc5)c5ccccc5)N4C(=O)C(NC(=O)C(C)NC)C3)c2)CCC2CCC(C(=O)NC(c3ccccc3)c3ccccc3)N2C1=O = 8.43
O=C(c1cc(Cc2n[nH]c(=O)c3ccccc23)ccc1F)N1CCN(C(=O)C2CC2)CC1 + CNC(C)C(=O)NC1CN(S(=O)(=O)c2cccc(S(=O)(=O)N3CCC4CCC(C(=O)NC(c5ccccc5)c5ccccc5)N4C(=O)C(NC(=O)C(C)NC)C3)c2)CCC2CCC(C(=O)NC(c3ccccc3)c3ccccc3)N2C1=O = 15.2

Look up viability, T/C: NC1CCC(NC2CC2c2ccccc2)CC1 (centres undefined) + CNC(C)C(=O)NC1CN(S(=O)(=O)c2cccc(S(=O)(=O)N3CCC4CCC(C(=O)NC(c5ccccc5)c5ccccc5)N4C(=O)C(NC(=O)C(C)NC)C3)c2)CCC2CCC(C(=O)NC(c3ccccc3)c3ccccc3)N2C1=O
22.6

All values here come from PubChem BioAssay AID1963445.
